Would you kindly list protein stability index for each of these sequences?
# assay-summary: protein stability index of a GFP-peptide fusion (GPS, HEK-293T) (PSI 1-6); higher = more stable;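 also: 24-mer peptide tiles fused after GFP, lentivirally expressed, FACS-sorted into six equal bins by GFP/DsRed ratio, decoded by Illumina sequencing, PSI is the read-weighted mean bin number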
# setup-conditions: treatment: DMSO; c terminus: a fixed tail appended
Answers are plain numbers.

macromolecule-sequence: TRTTSFKGTSPSSKYVKLNVGGAL [KCTD10]
result: 3.01

Batch request: protein stability index per item, same order as input.
1. EAGFHTVEAVAYAPKKELINIKGI [RAD51]
2. MSGRSKRESRGSTRGKRESESRGS [USP39]
3. LDPSSGAIHVLGPIDFEESRFYEI [PCDHGC5]

A)
1: 3.01; 2: 4.96; 3: 2.27

---

# assay-summary: protein stability index of a GFP-peptide fusion (GPS, HEK-293T) (PSI 1-6); higher = more stable
# setup-conditions: treatment: MLN4924 1 uM, 8 h; c terminus: a fixed tail appended
readout-name: protein stability index
Numbers only.

Record excerpt, results attached:
macromolecule-sequence: SGTDAEETILNAFKMLDPDGKGKI [MYL5]
readout-name: protein stability index
result: 4.31

macromolecule-sequence: SRKGELTPLPETGYWRVRLWNGDK [TRIM39]
readout-name: protein stability index
result: 2.58

macromolecule-sequence: HATALVEAFRLKQQLHARYVLNLL [PPEF2]
readout-name: protein stability index
result: 2.6

macromolecule-sequence: SDDSDEDEPCAISGKWTFQRDSKR [DLC1]
readout-name: protein stability index
result: 4.83

macromolecule-sequence: KLYHQSKGPGAPQYPAGTQGEQLE [SPSB2]
readout-name: protein stability index
result: 5

Batch request: protein stability index per item, same order as input.
1. SFLRDHSYATEADIISTVEFNHTG [PPP2R2B]
2. QPTIVEALLGYEMVQVACGASHVL [NEK8]

A)
1. 3.58
2. 2.74

---

# assay-summary: protein stability index of a GFP-peptide fusion (GPS, HEK-293T) (PSI 1-6); higher = more stable
# setup-conditions: treatment: DMSO; c terminus: a fixed tail appended
readout-name: protein stability index
Give bare numbers.

macromolecule-sequence: KVLLDCGADPDSRDFDNNTPLHIA [FEM1A]
protein stability index: 4.02
--
macromolecule-sequence: VDSKPELQRVLEHRRRNQLIKKKK [FAM107A]
protein stability index: 4.54
--
macromolecule-sequence: QVYKETRLFLDGEEEKEWAFEESK [AASDHPPT]
protein stability index: 4.56
--
macromolecule-sequence: YSCQSKEILRYMKEFTLLLSAANV [P2RY14]
protein stability index: 2.4
--
macromolecule-sequence: DIDVQLSSELTDSLRTLKPEGNIL [NOP53]
protein stability index: 4.1

Batch request: protein stability index per item, same order as input.
1. IYKKYALQSAAGKDAAKQIAWIKD [PDS5B]
2. VHRDLKPENLLLASKSKGAAVKLA [CAMK2D]
3. AFSNRSKQLRRQMWWRGCKIKAIM [VAMP4]
4. ELPNGSVKEAPAPTPTSLEVSSPP [PDZK1]
5. LQNFLLHGTKNVTNSSSLRLPRQN [WSB1]

A)
1: 2.03; 2: 3.58; 3: 2.35; 4: 5.04; 5: 2.89

---

# assay-summary: protein stability index of a GFP-peptide fusion (GPS, HEK-293T) (PSI 1-6); higher = more stable
# setup-conditions: treatment: DMSO; c terminus: a fixed tail appended
Class membership depends on protein stability index alone; the intervals are range A = under 3, range B = from 3 up to 5, range C = 5 and over

# count of solved cases: 3
macromolecule-sequence: EGRGGRPGSTRPHRSACSSAAVRG [HAGHL]
classification: range B
//
macromolecule-sequence: IQQALTMFPGVLLPLLESCSVRPD [TCF25]
classification: range A
//
macromolecule-sequence: GLQSYQQALLRISLDKVQRSLGPR [SERTAD3]
classification: range A

Below: the item to evaluate.
Q) # bin lookup: classify EPSNKTIHAELSKLVKKHAAQRST [FKBP8] by its protein stability index
A) range B
